// provenance: ChEMBL document CHEMBL1141294

System: A549
assay-overview: Cytotoxicity against human A549 cells
Type: functional
measurement-context: read-out: ED50 (the source's name)
Measured EC50 accompanies every entry in the list below.

[
  {
    "compound": "CCCCCCC/C=C/C=C/CC/C=C/[C@@H](O)[C@H](CO[C@@H]1O[C@H](CO)[C@@H](O)[C@H](O)[C@H]1O)NC(=O)[C@H](O)CCCCCCCCCCCCC/C=C\\CCCCCCCC [RENIEROSIDE A3]",
    "experimental-system": "A549",
    "EC50": "> 10 µg/mL"
  },
  {
    "compound": "CCCCCCC/C=C/C=C/CC/C=C/[C@@H](O)[C@H](CO[C@@H]1O[C@H](CO)[C@@H](O)[C@H](O)[C@H]1O)NC(=O)[C@H](O)CCCCCCCCCCCCCCCCCCCC [RENIEROSIDE A4]",
    "experimental-system": "A549",
    "EC50": "> 10 µg/mL"
  },
  {
    "compound": "CCCCCCC/C=C/C=C/CC/C=C/[C@@H](O)[C@H](CO[C@@H]1O[C@H](CO)[C@@H](O)[C@H](O)[C@H]1O)NC(=O)[C@H](O)CCCCCCCCCCCCCC/C=C\\CCCCCCCC [RENIEROSIDE A2]",
    "experimental-system": "A549",
    "EC50": "> 10 µg/mL"
  }
]
